- Protocol Notes: Retardation factor, deltaRm of the compound at pH 13 by TLC analysis
- Type: physicochemical
Measurement Kind: deltaRm
Answer with a number only.

In the examples that follow, each entry is paired with its recorded deltaRm.
>>> measurement("c1ccc(NC2=NCCN2)cc1")
0
>>> measurement("Brc1ccc(N=C2NCCN2)cc1")
0.58

### Prompt If you can, please state the reported deltaRm value of `Cc1ccc(N=C2NCCN2)c(C)c1` .
### Response 0.43

### Prompt # deltaRm lookup, item `Cc1cccc(C)c1N=C1NCCN1`
### Response 0.42

### Prompt Quick one: deltaRm for `COc1cc(C)ccc1N=C1NCCN1` ?
### Response -0.03

### Prompt May I ask what deltaRm has been recorded for `COc1ccc(OC)c(N=C2NCCN2)c1` ?
### Response -0.42

### Prompt Name the reported deltaRm value associated with the molecule `Brc1cccc(Br)c1N=C1NCCN1`
### Response 0.61

### Prompt What does the data say about its deltaRm? Entry: `Cc1ccc(Cl)cc1N=C1NCCN1`
### Response 0.72

### Prompt Can you share its deltaRm? I mean this molecule: `Fc1cccc(F)c1N=C1NCCN1`
### Response 0.24

* * *

- Protocol Notes: Octan-1-ol-aqueous buffer partition coefficient, log P of the compound at 10 to 20 mg at pH 7.4 by UV-spectroscopic analysis
- Assay type: physicochemical
Measurement Kind: logD
Write no unit; give the number alone.

Take a look at these entries with their results.
>>> measurement("Fc1cccc(F)c1N=C1NCCN1")
0.02
>>> measurement("FC(F)(F)c1ccccc1N=C1NCCN1")
0
>>> measurement("CCc1cccc(CC)c1NC1=NCCN1")
-0.84
>>> measurement("Brc1cccc(Br)c1N=C1NCCN1")
1.15
>>> measurement("Oc1cc(Cl)c(N=C2NCCN2)c(Cl)c1")
-0.4

### Prompt Reported logD for `Brc1ccc(N=C2NCCN2)cc1` : what is it?
### Response -0.5

### Prompt Using the record for `COc1ccc(OC)c(N=C2NCCN2)c1` , report its logD.
### Response -1.78

* * *

Reported deltaRm values follow for various molecules
- Protocol Notes: Retardation factor, deltaRm of the compound at pH 13 by TLC analysis
- Assay type: physicochemical
Could you keep your reply to the number by itself?

Below are worked cases with known answers.
>>> measurement("Clc1cccc(Cl)c1NC1=NCCN1")
0.38
>>> measurement("CC(C)c1cccc(C(C)C)c1N=C1NCCN1")
1.32
>>> measurement("Clc1cc(Cl)c(N=C2NCCN2)cc1Cl")
1.2
>>> measurement("Cc1cccc(Cl)c1N=C1NCCN1")
0.45
>>> measurement("Clc1ccc(N=C2NCCN2)c(Cl)c1")
0.76

Now consider the entry below.
### Prompt Recorded deltaRm for `COc1cc(OC)c(N=C2NCCN2)cc1Cl` , please?
### Response -0.07

* * *

- Protocol Notes: Octan-1-ol-aqueous buffer partition coefficient, log P of the compound at 10 to 20 mg at pH 7.4 by UV-spectroscopic analysis
- Type: physicochemical
Lab note: anything with logD below -0.3 is marked Satisfied; values at -0.3 or higher are marked Not satisfied.

>>> assigned_class("c1ccc(NC2=NCCN2)cc1")
"Satisfied"

### Prompt logD under -0.3? Item: `Cc1cccc(Cl)c1N=C1NCCN1`
### Response Satisfied

### Prompt Dear reviewer, please state whether `Cc1cccc(C)c1N=C1NCCN1` has logD strictly beneath -0.3.
### Response Satisfied

### Prompt Hello, is logD of the following compound strictly smaller than -0.3? `CC(C)c1cccc(C(C)C)c1N=C1NCCN1`
### Response Not satisfied
